experiment: Drug repurposing screens with cells derived from glioblastoma tumor samples (AID 1345199); details: GBM patient neurospheres viability, ATP luminescence, 48 h; at 45.9 µM (top of the series); tumour line D; also: % is scaled to controls: 0 for no effect and ±100 for the full control effect
Inconclusive results are not listed.
Kindly supply the reported activity, negative = cell killing values for the records listed here.
Answers are plain numbers, in %.

molecule	units	activity, negative = cell killing
OC1OC[C@@H](O)[C@H](O)[C@@H]1O (stereo partly specified)	%	10.5
NCCCC[C@H](N)C(=O)O	%	9.14
CC[C@@H]1/C=C(\C)C[C@H](C)C[C@H](OC)[C@H]2O[C@@](O)(C(=O)C(=O)N3CCCC[C@H]3C(=O)O[C@H](/C(C)=C/[C@@H]3CC[C@@H](Cl)[C@H](OC)C3)[C@H](C)[C@@H](O)CC1=O)[C@H](C)C[C@@H]2OC	%	-16.3
COC(=O)CCC[N+](C)(C)C	%	-8.53
CC(O)[C@@H]1NC(=O)[C@H](Cc2ccccc2)NC(=O)[C@H](C(C)O)NC(=O)[C@H](CCCCN)NC(=O)[C@H](Cc2c[nH]c3ccccc23)NC(=O)[C@H](Cc2ccccc2)NC(=O)[C@H](Cc2ccccc2)NC(=O)[C@H](CC(N)=O)NC(=O)[C@H](CCCCN)NC(=O)[C@@H](NC(=O)CNC(=O)[C@H](C)N)CSSC[C@@H](C(=O)O)NC(=O)[C@H](CO)NC1=O (stereo partly specified)	%	-20.3
CC(=O)Nc1ccc(OC(C)=O)cc1	%	2.27
CN1C(=O)C[C@@H](C(=O)N[C@@H](Cc2cnc[nH]2)C(=O)N2CCC[C@H]2C(N)=O)NC1=O	%	-5.42
CC1(C)S[C@@H]2[C@H](NC(=O)C3(N)CCCCC3)C(=O)N2[C@H]1C(=O)O	%	-4.88

// each molecule listed below needs its activity, negative = cell killing
1. COc1cc(S(C)=O)ccc1-c1nc2ncccc2[nH]1 (stereo unspecified)
2. CC(C)(C)C(=O)OCC(=O)[C@H]1CC[C@H]2[C@@H]3CCC4=CC(=O)CC[C@]4(C)[C@H]3CC[C@]12C

Output:
1. -12
2. -7.34
